# Target Of Assay: GlcNAc(b1-3)[GlcNAc(b1-6)]Gal(b1-4)GlcNAc
# Assay: glycan array binding signal (z-score within array); higher = stronger binding
# Recorded Conditions: glycan notation: IUPAC condensed, linker removed
The full list was thinned out, with the strongest signals kept by preference.
Property Name: glycan array binding signal (z-score)
Would you mind answering with just the numeric figure?

Please look up its glycan array binding signal (z-score): Pwp5 ND (Candida glabrata) (protein) MGSSHHHHHHSSGLVPRGSHMASANPVPLTNVCYFPEEYPRQAGFRAITAGLASTILQGSVDELLNYSGLSSLTTQQTTTTTPNFQLPTLPLPTNVYGLTVVPLYLLVQLQGYFVPPVSGQYTFSLENTNDAAIIFFGNPSAFPCGDLSAWPQASADDITVTDGTFPSRTLFLKAGVAYPMRISYYNSLGSGNLAVSFTDPGGTKRTNWNGYIWRYNSCSTCTYT
-0.152

More entries:
Please look up its glycan array binding signal (z-score): F17fG (Escherichia coli), Q9RH91 (protein) MTNFYKVFLAVFILVCCNISHAAVSFIGSTENDVGPSQGSYSSTHAMDNLPFVYNTGHNIGYQNANVWRISGGFCVGLDGKVDLPVVGSLDGQSIYGLTEEVGLLIWMGDTNYSRGTAMSGNSWENVFSGWCVGNYVSTQGLSVHVRPVILKRNSSAQYSVQKTSIGSIRMRPYNGSSAGSVQTTVNFSLNPFTLNDTVTSCRLLTPSAVNVSLAAISAGQLPSSGDEVVAGTTSLKLQCDAGVTVWATLTDATTPSNRSDILTLTGASTATGVGLRIYKNTDSTPLKFGPDSPVKGNENQWQLSTGTETSPSVRLYVKYVNTGEGINPGTVNGISTFTFSYQ
6.97

Please look up its glycan array binding signal (z-score): Pwp2 (Candida glabrata) (protein) MGSSHHHHHHSSGLVPRGSHMASKNPVELNNVCTFPNDYGRIPGFTVLVGRLGLLISASDYKELLRYPGAFLIATQDTMTTSPNFELTGFPFFTGLYGLTVFPLDLLVELRGYFVPPNSGQYTFTLSDSDDAAIIFLGNPSAFPCGDLQNWPKPSEEDITVTDHLFPSRTLYLIEGVAYPMRIAYYNGIGAGRLNAAFIDPSGTRHTNWEGYIWQYDPCSTCTYS
-0.141

Please look up its glycan array binding signal (z-score): SJCP1531 (Schistosoma japonicum) (protein) MFKVRIINLVNISTVLLLINLLQTKSQVNVEQLVTVLEVNIKAQLKNKTTEVLVEWNPLYQDNSMPEYRKLLDETCKLFLPFVNEKVPPSTYGGECTNANFSEAPQDGSYSRVNAELRLIYKYSDNPQIQTDRLQDDLNDREEFITSESSFVAYNPKFTVKIEKLFIPISESQTTPPPTTAKNDASKKDDDDNGGEDSKAPIDTFAMTASGNKGKKDDDDNGGEDSKAPIDTFAMTASGSKDERSTWTIIGIITLVVLIFVVIGGGITVFVKRC
0.523

Please look up its glycan array binding signal (z-score): FliC (Clostridium difficile) (protein) MRVNTNVSALIANNQMGRNVNGQSKSMEKLSSGVRIKRAADDAAGLAISEKMRAQIKGLDQAGRNVQDGISVVQTAEGSLEETGNILQRMRTLSLQSANEINNTEEREKIADELTQLKDEIERISSSTEFNGKKLLDGTSSTIRLQVGASYGTNVSGTSNNNNEIKIQLVNTASIMASAGITTASIGSMKAGGTTGTDAAKTMVSSLDAALKSLNSSRAKLGAQQNRLESTQNNLNNTLENVTAAESRIRDTDVASEMVNLSKMNILVQASQSMLAQANQQPQGVLQLLG
-0.057
